The following compounds are listed with their measured % inhibition at 1 × 10^-5 M values.
system.under.test: Rat brain protein farnesyltransferase (Rattus norvegicus, UniProt Q02293+Q04631)
Construct: Rat brain protein farnesyltransferase activity is measured; from tissue; host or cells: rat brain
Sequence (Q02293 whole entry, one chain of several): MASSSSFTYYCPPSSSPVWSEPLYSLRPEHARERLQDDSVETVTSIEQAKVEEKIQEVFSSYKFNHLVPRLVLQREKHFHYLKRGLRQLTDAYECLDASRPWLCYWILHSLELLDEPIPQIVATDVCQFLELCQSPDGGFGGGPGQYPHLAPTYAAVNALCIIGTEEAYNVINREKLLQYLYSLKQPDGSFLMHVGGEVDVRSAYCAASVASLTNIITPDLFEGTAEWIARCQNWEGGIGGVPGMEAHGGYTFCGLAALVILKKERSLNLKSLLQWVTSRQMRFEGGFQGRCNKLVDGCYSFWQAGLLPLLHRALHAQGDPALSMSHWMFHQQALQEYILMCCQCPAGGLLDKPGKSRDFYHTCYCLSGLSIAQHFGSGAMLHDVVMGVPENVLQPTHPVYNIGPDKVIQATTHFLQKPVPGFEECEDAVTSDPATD
assay.comment: % inhibition of farnesylation, scintillation proximity assay with biotin-K Ras B fragment
Assay type: biochemical
protocol.conditions: Table 1; 1 × 10^-5 M
endpoint: % inhibition at 1 × 10^-5 M (%)

- CSCC[C@H](NC(=O)c1ccc(CNc2ccc3c(c2)CCC3)cc1-c1ccccc1)C(=O)O [Example 705]: 72
- CSCC[C@H](NC(=O)c1ccc(CNc2cccc(N(C)C)c2)cc1-c1ccccc1)C(=O)O [Example 683]: 57
- CSCC[C@H](NC(=O)c1ccc(CNc2cccc(CO)c2)cc1-c1ccccc1)C(=O)O [Example 680]: 58
- CSCC[C@H](NC(=O)c1ccc(CNCCC2CCCCC2)cc1-c1ccccc1)C(=O)O [Example 663]: 43
- COc1ccc(NCc2ccc(C(=O)N[C@@H](CCSC)C(=O)O)c(-c3ccccc3)c2)cc1 [Example 690]: 61

----------
The following molecules are listed with their measured % inhibition at 1 × 10^-6 M values.
system.under.test: Rat brain protein farnesyltransferase (Rattus norvegicus, UniProt Q02293+Q04631)
Construct: Rat brain protein farnesyltransferase activity is measured; from tissue; host or cells: rat brain
assay.comment: % inhibition of farnesylation, scintillation proximity assay with biotin-K Ras B fragment
Type: biochemical
protocol.conditions: Table 2; 1 × 10^-6 M
endpoint: % inhibition at 1 × 10^-6 M (%)

• CSCC[C@H](NC(=O)c1ccc(CCc2cccc(-c3ccccc3)c2)cc1-c1ccccc1C)C(=O)[O-].[Li+] [Example 793] = 94
• CSCCC(CO)NCc1ccc(C(=O)N[C@@H](CCSC)C(=O)O)c(-c2ccccc2)c1 (stereo partly drawn) [Example 633] = 32
• CSCC[C@H](NC(=O)c1ccc(CN(Cc2ccccc2)Cc2ccco2)cc1-c1ccccc1C)C(=O)O [Example 504] = 90
• CSCC[C@H](NC(=O)c1ccc(CN(C)CCc2ccccc2)cc1-c1ccccc1C)C(=O)O [Example 516] = 95
• CSCC[C@H](NC(=O)c1ccc(CN(CCO)Cc2ccccc2)cc1-c1ccccc1)C(=O)O [Example 515] = 72
• CSCC[C@H](NC(=O)c1ccc(CN2CCCC(OCc3ccccc3)C2)cc1-c1ccccc1C)C(=O)O (stereo partly drawn) [Example 989] = 88
• CSCC[C@H](NC(=O)c1ccc(CNc2ccc(-c3nc4ccccc4s3)cc2)cc1-c1ccccc1)C(=O)O [Example 703] = 40
• COc1ccccc1CNCc1ccc(C(=O)N[C@@H](CCSC)C(=O)O)c(-c2ccccc2)c1 [Example 650] = 68
• CSCC[C@H](NC(=O)c1ccc(CN(C(C)C)C2(CC3CCCCC3)CCC2)cc1-c1ccccc1C)C(=O)O [Example 332] = 26
• Cc1ccccc1-c1cc(CN(C2CC2)C2(CC3CCCCC3)CCCC2)ccc1C(=O)N[C@@H](CCS(C)(=O)=O)C(=O)O [Example 346] = 98
• CSCC[C@H](NC(=O)c1ccc(NCCO)cc1-c1ccccc1)C(=O)O [Example 502] = 24
• CSCC[C@H](NC(=O)c1ccc(NC(=O)[C@@H](N)COCc2ccccc2)cc1-c1ccccc1)C(=O)O [Example 503] = 57
• Cc1ccccc1-c1cc(CN(C2CC2)C(C)(C)Cc2ccccc2)ccc1C(=O)N[C@@H](CCS(C)(=O)=O)C(=O)O [Example 319] = 98
• CSCC[C@H](NC(=O)c1ccc(CN[C@H](CO)CC2CCCCC2)cc1-c1ccccc1C)C(=O)O [Example 617] = 99
• CSCC[C@H](NC(=O)c1ccc(CNC(C)(C)Cc2ccccc2)cc1-c1ccccc1C)C(=O)O [Example 307] = 82

----------
system.under.test: Rat brain protein farnesyltransferase (Rattus norvegicus, UniProt Q02293+Q04631)
Construct: Rat brain protein farnesyltransferase activity is measured; from tissue; host or cells: rat brain
assay.comment: % inhibition of farnesylation, scintillation proximity assay with biotin-K Ras B fragment
Type: biochemical
protocol.conditions: read-out: % inhibition at 1 × 10^-6 M
Counter-ions that a name gives are not always drawn.
endpoint: inhibition at 1 µM (%)

• CSCC[C@H](NC(=O)c1ccc(CSCc2ccc(C)cc2)cc1-c1ccccc1C)C(=O)O [Example 556, lithium salt] = 99
• CSCC[C@H](NC(=O)c1ccc(OCCOC2CCCCC2)cc1-c1ccccc1C)C(=O)O [Example 565, lithium salt] = 94
• CSCC[C@H](NC(=O)c1ccc(COCCc2ccccc2)cc1-c1ccccc1C)C(=O)O [Example 587, lithium salt] = 97
• CSCC[C@H](NC(=O)c1ccc(COC2(Cc3ccccc3)CCN(C(=O)OC(C)(C)C)CC2)cc1-c1ccccc1C)C(=O)O [Example 809, lithium salt] = 78
• CSCC[C@H](NC(=O)c1ccc(COC2CCN(C(=O)OC(C)(C)C)CC2)cc1-c1ccccc1C)C(=O)O [Example 808, lithium salt] = 88
• CSCC[C@H](NC(=O)c1ccc(CSC2CCCCC2)cc1-c1ccccc1C)C(=O)O [Example 550, lithium salt] = 96
• CSCC[C@H](NC(=O)c1ccc(OCCCc2ccccc2)cc1-c1ccccc1C)C(=O)O [Example 879, lithium salt] = 95
• CSCC[C@H](NC(=O)c1ccc(COCc2cccs2)cc1-c1ccccc1C)C(=O)O [Example 273, Lithium salt] = 96
• CSCC[C@H](NC(=O)c1ccc(COCc2ccc(-c3ccccc3)o2)cc1-c1ccccc1C)C(=O)O [Example 327, lithium salt] = 97
• CSCC[C@H](NC(=O)c1ccc(OCCC2CCCCC2)cc1-c1ccccc1C)C(=O)O [Example 552, lithium salt] = 88
• CSCC[C@H](NC(=O)c1ccc(COCCCc2ccccc2)cc1-c1ccccc1C)C(=O)O [Example 595, lithium salt] = 97
• CSCC[C@H](NC(=O)c1ccc(COCc2ccc3ccccc3c2)cc1-c1ccccc1C)C(=O)O [Example 583, lithium salt] = 98
• CSCC[C@H](NC(=O)c1ccc(COCc2ccccc2C)cc1-c1ccccc1C)C(=O)O [Example 577, lithium salt] = 94
• CSCC[C@H](NC(=O)c1ccc(COCc2ccc(-c3ccc(F)cc3)o2)cc1-c1cccc2ccccc12)C(=O)O [Example 868, lithium salt] = 89

----------
system.under.test: Rat brain protein farnesyltransferase (Rattus norvegicus, UniProt Q02293+Q04631)
Construct: Rat brain protein farnesyltransferase activity is measured; from tissue; host or cells: rat brain
assay.comment: % inhibition of farnesylation, scintillation proximity assay with biotin-K Ras B fragment
Assay type: biochemical
protocol.conditions: Table 3; 1 × 10^-7 M
Method: The ability of the compounds of the invention to inhibit protein farnesyltransferase or protein geranylgeranyltransferase can be measured according to the method of Moores, et al., J. Biol. Chem. 266: 14603 (1991) or the method of Vogt, et al., J. Biol. Chem. 270:660-664 (1995). […] In addition, in vitro inhibition of protein farnesyltransferase may be measured by the following procedure. […] The % inhibition of protein farnesyltransferase was determined for representative compounds of the invention.
endpoint: % inhibition at 1 × 10^-7 M (%)

• CCSC[C@H](CC1CCCCC1)N(Cc1ccc(C(=O)N[C@@H](CCSC)C(=O)O)c(-c2ccccc2C)c1)C(=O)OC(C)(C)C [Example 948] = 75
• CSCC[C@H](NC(=O)c1ccc(/C=C/c2ccc(Oc3ccccc3Cl)cc2)cc1-c1ccccc1C)C(=O)O [Example 854] = 78
• CCCCN(CCCC)C(=O)CNCc1ccc(C(=O)N[C@@H](CCSC)C(=O)O)c(-c2ccccc2C)c1 [Example 912] = 85
• CCSC[C@H](CC1CCCCC1)N(Cc1ccc(C(=O)N[C@@H](CCSC)C(=O)O)c(-c2ccccc2C)c1)S(=O)(=O)c1ccccc1 [Example 951] = 71
• COc1ccccc1N(Cc1ccccc1)Cc1ccc(C(=O)N[C@@H](CCSC)C(=O)O)c(-c2ccccc2C)c1 [Example 839] = 63
• CSCC[C@H](NC(=O)c1ccc(CN[C@@H](CO)C2CCCCC2)cc1-c1ccccc1C)C(=O)O [Example 604] = 86

----------
The following compounds are listed with their measured inhibition at 0.01 µM values.
system.under.test: Rat brain protein farnesyltransferase (Rattus norvegicus, UniProt Q02293+Q04631)
Construct: Rat brain protein farnesyltransferase activity is measured; from tissue; host or cells: rat brain
assay.comment: % inhibition of farnesylation, scintillation proximity assay with biotin-K Ras B fragment
Type: biochemical
protocol.conditions: read-out: % inhibition at 1 × 10^-8 M
Structures can show the parent of a compound that is named as a salt.
endpoint: inhibition at 0.01 µM

- CSCC[C@H](NC(=O)c1ccc(COCCCC23CC4CC(CC(C4)C2)C3)cc1-c1ccccc1C)C(=O)O [Example 599, lithium salt]: 86%
- CSCC[C@H](NC(=O)c1ccc(COCCc2ccc(Cl)cc2Cl)cc1-c1ccccc1C)C(=O)O [Example 591, lithium salt]: 82%
- CSCC[C@H](NC(=O)c1ccc(COCc2ccc(-c3ccc(C(C)C)cc3)o2)cc1-c1ccccc1C)C(=O)O [Example 820, lithium salt]: 66%
- CSCC[C@H](NC(=O)c1ccc(COCc2oc(-c3ccc(Cl)cc3)c(Cl)c2Cl)cc1-c1ccccc1C)C(=O)O [Example 829, lithium salt]: 92%
- CSCC[C@H](NC(=O)c1ccc(COCc2cccc(C(C)C)c2)cc1-c1ccccc1C)C(=O)O [Example 939, lithium salt]: 72%
- CSCC[C@H](NC(=O)c1ccc(COCc2ccccc2C(C)C)cc1-c1ccccc1C)C(=O)O [Example 938, lithium salt]: 61%
- CSCC[C@H](NC(=O)c1ccc(COCc2occc2-c2ccc(Cl)cc2)cc1-c1ccccc1C)C(=O)O [Example 827, lithium salt]: 77%
